- recorded conditions: in 1,4-dioxane, 308.15 K
metric name: solubility (mole fraction)

solubility (mole fraction) reading for COc1ccc2c(c1)c(CC(=O)O)c(C)n2C(=O)c1ccc(Cl)cc1 : 0.0416

* * *

- recorded conditions: in water, 298.15 K
metric name: solubility (mole fraction)
Reply with just the number.

COc1ccc2c(c1)c(CC(=O)O)c(C)n2C(=O)c1ccc(Cl)cc1 yielded solubility (mole fraction) of 9.32e-07

* * *

- recorded conditions: in water, 308.15 K
metric name: solubility (mole fraction)
// return a plain number; no unit text

Entry COc1ccc2c(c1)c(CC(=O)O)c(C)n2C(=O)c1ccc(Cl)cc1 — recorded solubility (mole fraction) = 1.27e-06

Cited source: BigSolDB 2.1
